- assay-target: DNA dC->dU-editing enzyme APOBEC-3F (Homo sapiens) (UniProt Q8IUX4)
- Sequence (Q8IUX4 whole entry, looked up): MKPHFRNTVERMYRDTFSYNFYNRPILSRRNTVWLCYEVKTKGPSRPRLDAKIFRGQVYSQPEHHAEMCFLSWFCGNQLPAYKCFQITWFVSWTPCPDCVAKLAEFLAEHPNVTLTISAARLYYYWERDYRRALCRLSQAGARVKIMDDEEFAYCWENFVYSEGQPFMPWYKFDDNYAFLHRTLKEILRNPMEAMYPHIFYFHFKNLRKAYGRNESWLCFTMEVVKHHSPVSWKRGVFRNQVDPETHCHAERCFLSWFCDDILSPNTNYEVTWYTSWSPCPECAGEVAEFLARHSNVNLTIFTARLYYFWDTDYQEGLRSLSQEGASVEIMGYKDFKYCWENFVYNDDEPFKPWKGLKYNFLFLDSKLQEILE
- assay-comment: qHTS for inhibitors of Vif-A3F interactions: Cherry picks; further: potency means the concentration at half of the fitted maximal effect; nearly all actives have a fitted effect of over 70% in size
- test-context: HeLa A3F-eYFP + Vif (tagged APOBEC3F with the HIV-1 protein that degrades it), eYFP fluorescence, 24 h
Hit rate of the full screen: of about 2,100 compounds, about 590 (28%) were called active. About 42% were inconclusive and are not listed. The list shows a part of the results.
Potency reference
measured-quantity: Potency

[[record]]
smiles_structure = "Cc1cc(NC(=O)CSc2nc3c(C)cccc3cc2C#N)no1"
measured_quantity = "Potency"
result_value = "7.31 µM (active)"

[[record]]
smiles_structure = "CC(C)NC(=S)N/N=C/c1sc(N2CCCCC2)nc1-c1cccs1"
measured_quantity = "Potency"
result_value = "16.4 µM (active)"

[[record]]
smiles_structure = "COc1ccc(-c2cc(NC(C)=O)c3ncc(-c4cc(OC)c(OC)c(OC)c4)n3c2)cn1"
measured_quantity = "Potency"
result_value = "4.98 µM (active)"

[[record]]
smiles_structure = "CCOc1cc(N(CC)CC)ccc1/C=C(/C#N)c1nc2ccccc2[nH]1"
measured_quantity = "Potency"
result_value = "1.46 µM (active)"

[[record]]
smiles_structure = "COc1ccc(-c2cnc3c(NC=O)cc(-c4ccccc4)cn23)cc1OC"
measured_quantity = "Potency"
result_value = "4.98 µM (active)"

[[record]]
smiles_structure = "COc1cc2c3nnc(-c4ccc(F)cc4)c-3cn(Cc3ccc(C)cc3)c2cc1OC"
measured_quantity = "Potency"
result_value = "9.94 µM (active)"

[[record]]
smiles_structure = "Cc1cc2ccccn2c1C(=O)c1ccc([N+](=O)[O-])o1"
measured_quantity = "Potency"
result_value = "11.6 µM (active)"

[[record]]
smiles_structure = "CCc1cc(/C=C/c2ccnc3ccccc23)ccc1N(C)C"
measured_quantity = "Potency"
result_value = "14.6 µM (active)"

[[record]]
smiles_structure = "COc1cc(OC)c(/C=C/c2ccc3ccccc3[n+]2C)c(OC)c1"
measured_quantity = "Potency"
result_value = "5.17 µM (active)"

[[record]]
smiles_structure = "Nc1c(C(=O)N/N=C/c2cccnc2)oc2nc(-c3ccccc3)cc(-c3ccco3)c12"
measured_quantity = "Potency"
result_value = "13 µM (active)"

[[record]]
smiles_structure = "CC(=O)Oc1cccc(N2C(=O)c3cccc4c([N+](=O)[O-])ccc(c34)C2=O)c1"
measured_quantity = "Potency"
result_value = "14 µM (active)"


Values were extracted from PubChem BioAssay AID651814.
